system-name: T1, N1 binding to cell surface expressed hJ1 (Homo sapiens, UniProt P78504)
T1 construct: cell expressed full length human J1 (hJ1; HEK293 transfectants); expressed in transfected cells; host or cells: HEK293
T1 sequence (P78504 34-1218): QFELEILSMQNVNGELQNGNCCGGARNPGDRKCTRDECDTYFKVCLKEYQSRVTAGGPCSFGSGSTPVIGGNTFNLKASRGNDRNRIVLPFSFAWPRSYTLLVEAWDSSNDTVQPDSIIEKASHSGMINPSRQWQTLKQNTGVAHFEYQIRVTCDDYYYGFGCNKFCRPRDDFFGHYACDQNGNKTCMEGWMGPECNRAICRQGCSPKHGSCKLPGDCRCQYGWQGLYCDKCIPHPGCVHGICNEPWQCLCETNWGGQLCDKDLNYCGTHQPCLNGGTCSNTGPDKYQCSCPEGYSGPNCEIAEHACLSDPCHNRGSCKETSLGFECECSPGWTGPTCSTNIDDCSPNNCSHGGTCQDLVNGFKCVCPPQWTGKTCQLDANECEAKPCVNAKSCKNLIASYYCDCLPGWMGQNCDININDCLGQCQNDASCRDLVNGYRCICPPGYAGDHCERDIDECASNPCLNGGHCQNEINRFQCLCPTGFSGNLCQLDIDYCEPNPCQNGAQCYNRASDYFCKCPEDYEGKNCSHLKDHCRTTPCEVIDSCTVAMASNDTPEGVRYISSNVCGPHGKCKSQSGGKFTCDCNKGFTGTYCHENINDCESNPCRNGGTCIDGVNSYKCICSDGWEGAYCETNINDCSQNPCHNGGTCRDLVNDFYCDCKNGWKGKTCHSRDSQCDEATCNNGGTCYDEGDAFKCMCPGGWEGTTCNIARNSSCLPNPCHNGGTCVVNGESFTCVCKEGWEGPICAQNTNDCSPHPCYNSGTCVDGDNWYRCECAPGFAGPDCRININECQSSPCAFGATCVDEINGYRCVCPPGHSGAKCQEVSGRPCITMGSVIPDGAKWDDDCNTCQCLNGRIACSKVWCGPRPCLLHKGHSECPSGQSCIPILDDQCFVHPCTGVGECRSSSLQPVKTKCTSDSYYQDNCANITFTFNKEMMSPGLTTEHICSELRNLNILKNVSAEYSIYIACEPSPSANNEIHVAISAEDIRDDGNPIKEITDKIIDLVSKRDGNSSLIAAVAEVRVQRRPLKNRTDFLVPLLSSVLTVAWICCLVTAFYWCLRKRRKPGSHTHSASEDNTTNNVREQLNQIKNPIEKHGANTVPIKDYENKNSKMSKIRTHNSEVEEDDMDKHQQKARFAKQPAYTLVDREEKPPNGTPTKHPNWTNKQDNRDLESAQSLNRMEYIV
assay-protocol: Notch binding blocking assay (FACS): N1 EGF11-13 beads staining human J1-expressing cells
Set-up: key: +: Complete blocking; X: No blocking
test-settings: final antibody concentration 0.2 μg/ml
measured-attribute: Blocking of Notch1 binding to cell surface Jagged 1

1) J1-65D variant 6: humanised/de-immunised J1-65D: J1-65D_VL_2 + J1-65D_VH_2 (antibody, V domains shown) VH: QVQLVQSGAELKKPGSSVKVSCKASGYTFTDYEMHWVRQAPGQGLEWMGAIQPGGGGTAYAQKFKGRVTLTADKSTSTAYMELSSLRSEDTAVYYCTRRGYDDYPFAYWGQGTLVTVSSASTKGP VL: DIQMTQSPSSLSASVGDRVTITCRASGNIHNYLAWYQQKPGKAPKLLIYNAKTLADAVPSRFSGSGSGTDYTLTISSLQPEDFATYYCQHFWSAPWTFGGGTKLEIKRT    X
2) J1-65D variant 5: humanised/de-immunised J1-65D: J1-65D_VL_2 + J1-65D_VH_1 (antibody, V domains shown) VH: QVQLVQSGAELKKPGSSVKVSCKASGYTFTDYEMHWVRQAPGQGLEWMGAIQPGGGGTAYNQKFKGRVTLTADKSTSTAYMELSSLRSEDTAVYYCTRRGYDDYPFAYWGQGTLVTVSSASTKGP VL: DIQMTQSPSSLSASVGDRVTITCRASGNIHNYLAWYQQKPGKAPKLLIYNAKTLADAVPSRFSGSGSGTDYTLTISSLQPEDFATYYCQHFWSAPWTFGGGTKLEIKRT    X
